Ref: the supplement of paper PMC11061612

System: KATOIII (Gastric Carcinoma)
Measurement protocol: combination Emax (second highest fraction inhibited in the dose matrix, 72 h); higher = more inhibition; extreme values may be limits of the assay
Measured combination Emax, listed per entry for reference.
Give a plain numeric answer without units written out.

Recorded combination Emax, per entry:
CN(CCO)CC[C@H](CSc1ccccc1)Nc1ccc(S(=O)(=O)NC(=O)c2ccc(N3CCC([C@@H](O)c4ccccc4-c4ccc(Cl)cc4)CC3)cc2)cc1S(=O)(=O)C(F)(F)F [AZD4320] + CC(=O)O[C@H]1C(=O)[C@@]2(C)[C@H]([C@H](OC(=O)c3ccccc3)[C@]3(O)C[C@H](OC(=O)[C@H](O)[C@@H](NC(=O)c4ccccc4)c4ccccc4)C(C)=C1C3(C)C)[C@]1(OC(C)=O)CO[C@@H]1C[C@@H]2O [Paclitaxel] (first compound max 1 µM, 7x7, partner max 3 µM): 0.803
COc1nnc2ccc(N3CCC(c4ccc(OCCN5CCN(C)C(=O)[C@H]5C)cc4)CC3)nn12 [AZD5153] + Cn1cnc2c(F)c(Nc3ccc(Br)cc3Cl)c(C(=O)NOCCO)cc21 [Selumetinib] (first compound max 1 µM, 7x7, partner max 10 µM): 0.424

Switching to the query record.
Report combination Emax, nothing else, for this compound: CN(CCO)CC[C@H](CSc1ccccc1)Nc1ccc(S(=O)(=O)NC(=O)c2ccc(N3CCC([C@@H](O)c4ccccc4-c4ccc(Cl)cc4)CC3)cc2)cc1S(=O)(=O)C(F)(F)F [AZD4320] + Cn1cnc2c(F)c(Nc3ccc(Br)cc3Cl)c(C(=O)NOCCO)cc21 [Selumetinib] (first compound max 1 µM, 7x7, partner max 3 µM) 0.29

* * *

Tested on: SNU-C5 (Colorectal Carcinoma)
Measurement protocol: Bliss excess, mean over the matrix (fraction); higher = more synergy
Value kind: Bliss excess
Give a plain numeric answer without units written out.

Report Bliss excess, nothing else, for this compound: Cc1cc2ncnn2cc1Nc1ncc2c(n1)n(C1CCOCC1)c(=O)n2C [AZD7648] + O=C(c1cc(Cc2n[nH]c(=O)c3ccccc23)ccc1F)N1CCN(C(=O)C2CC2)CC1 [Olaparib] (first compound max 10 µM, 7x7, partner max 10 µM) -0.0064

Report Bliss excess, nothing else, for this compound: CN(CCO)CC[C@H](CSc1ccccc1)Nc1ccc(S(=O)(=O)NC(=O)c2ccc(N3CCC([C@@H](O)c4ccccc4-c4ccc(Cl)cc4)CC3)cc2)cc1S(=O)(=O)C(F)(F)F [AZD4320] + C[C@@H](Nc1cc(F)cc(F)c1)c1cc(C(=O)N(C)C)cc2c(=O)cc(N3CCOCC3)oc12 [AZD8186] (first compound max 1 µM, 7x7, partner max 3 µM) -0.0704

* * *

Tested on: DOV13 (Ovarian Carcinoma)
Measurement protocol: Bliss excess, mean over the matrix (fraction); higher = more synergy
# binarize Bliss excess: threshold -0.04 inclusive, high side YES, low side NO

Field: example entries. Status: answers known.
COc1cccc2c1C(=O)c1c(O)c3c(c(O)c1C2=O)C[C@@](O)(C(=O)CO)C[C@@H]3O[C@H]1C[C@H](N)[C@H](O)[C@H](C)O1 [Doxorubicin] + Cc1cc2ncnn2cc1Nc1ncc2c(n1)n(C1CCOCC1)c(=O)n2C [AZD7648] (first compound max 1 µM, 7x7, partner max 10 µM): YES
Cc1c2c(nn1C)CSCc1cc(n(C)n1)CSc1cc(c3ccccc3c1)OCCCc1c(C(=O)O)n(C)c3c-2c(Cl)ccc13 [AZD5991] + Cc1cc2ncnn2cc1Nc1ncc2c(n1)n(C1CCOCC1)c(=O)n2C [AZD7648] (first compound max 1 µM, 7x7, partner max 10 µM): YES
Cc1c2c(nn1C)CSCc1cc(n(C)n1)CSc1cc(c3ccccc3c1)OCCCc1c(C(=O)O)n(C)c3c-2c(Cl)ccc13 [AZD5991] + Cn1cnc2c(F)c(Nc3ccc(Br)cc3Cl)c(C(=O)NOCCO)cc21 [Selumetinib] (first compound max 1 µM, 7x7, partner max 3 µM): YES

Would you say CC(=O)c1c(C)c2cnc(Nc3ccc(N4CCNCC4)cn3)nc2n(C2CCCC2)c1=O [Palbociclib] + Cc1c2c(nn1C)CSCc1cc(n(C)n1)CSc1cc(c3ccccc3c1)OCCCc1c(C(=O)O)n(C)c3c-2c(Cl)ccc13 [AZD5991] (first compound max 10 µM, 7x7, partner max 1 µM) shows Bliss excess at minimum -0.04? NO

Would you say CS(=O)(=O)CCNCc1ccc(-c2ccc3ncnc(Nc4ccc(OCc5cccc(F)c5)c(Cl)c4)c3c2)o1 [Lapatinib] + Cn1cnc2c(F)c(Nc3ccc(Br)cc3Cl)c(C(=O)NOCCO)cc21 [Selumetinib] (first compound max 10 µM, 7x7, partner max 10 µM) shows Bliss excess at minimum -0.04? YES
